# system.tested: Insulin-degrading enzyme (Homo sapiens)
# protocol.summary: human IDE activators in live cells, primary screen, fluorescence polarization, HEK cells, FAbeta-B substrate (AID 493087)
# measurement.parameters: FAbeta-B cleavage, at 5.96 µM, hits give high values, 0% vehicle, 100% cell-free pure enzyme wells
About 240 (0.071%) of roughly 340,000 compounds were called active. Many of the other results were omitted from the sample, so actives are more common in it than they were.
# maps each entry to its activation
The reply should contain only the number, in %.

Take a look at these entries with their results.
compound: Cc1ccc(S(=O)(=O)N(C)CC(=O)NCC(c2ccc(F)cc2)N2CCOCC2)cc1 (configuration not stated)
activation, %: 1.51
--
compound: CC1=C(C)CC(C(=O)NNC(=O)c2csc3c2CCC(C(C)(C)C)C3)C(C(=O)O)C1 (configuration not stated)
activation, %: 4.06
--
compound: Cn1c(N)c(C(=O)COC(=O)/C=C/c2cccc(C(F)(F)F)c2)c(=O)n(C)c1=O
activation, %: 4.24
--
compound: CCOC(=O)c1cc2c(=O)n3ccccc3nc2n(CC(C)C)c1=NC(=O)c1c(-c2c(F)cccc2Cl)noc1C
activation, %: 1.41
--
compound: COc1cc2ccccc2cc1C(=O)N(CCN(C)C)c1nc2c(F)cccc2s1
activation, %: 6.93

Query block: For the compound CCOC(=O)C1(CC2CCCCO2)CCN(Cc2nc(-c3cccs3)oc2C)CC1 (configuration not stated) , what activation is on record?
Result block: -1.12

Query block: Using the record for CCc1nnc(NC(=O)C2CC(=O)N(c3ccc4c(c3)OCCO4)C2)s1 (configuration not stated) , report its activation.
Result block: 3.02
